tested_target: Human plasma kallikrein (Homo sapiens (Human), UniProt P03952)
Sequence (P03952 391-638): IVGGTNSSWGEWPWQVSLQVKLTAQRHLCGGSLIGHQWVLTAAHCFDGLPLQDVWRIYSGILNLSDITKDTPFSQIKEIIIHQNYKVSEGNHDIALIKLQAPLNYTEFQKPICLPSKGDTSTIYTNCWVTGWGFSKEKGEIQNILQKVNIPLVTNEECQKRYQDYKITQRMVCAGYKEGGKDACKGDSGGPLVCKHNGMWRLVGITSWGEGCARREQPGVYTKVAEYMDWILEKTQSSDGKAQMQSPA
Sequence (P03952 20-390 partner): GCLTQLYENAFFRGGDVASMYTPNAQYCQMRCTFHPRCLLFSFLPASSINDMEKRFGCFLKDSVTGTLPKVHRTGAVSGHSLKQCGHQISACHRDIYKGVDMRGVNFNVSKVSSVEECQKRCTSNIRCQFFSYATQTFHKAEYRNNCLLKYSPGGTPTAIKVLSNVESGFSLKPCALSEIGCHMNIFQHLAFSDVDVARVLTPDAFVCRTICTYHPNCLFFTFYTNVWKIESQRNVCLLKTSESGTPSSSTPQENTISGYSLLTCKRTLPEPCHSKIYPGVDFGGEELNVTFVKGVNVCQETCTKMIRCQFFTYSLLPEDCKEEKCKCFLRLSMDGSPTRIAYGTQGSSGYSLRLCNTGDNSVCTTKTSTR
assay_explanation: Determination of the IC50 for plasma kallikrein (fluorogenic substrate H-DPro-Phe-Arg-AFC)
cond: 37° C., read-out: IC50 (human PKaI)
pIC50: −log10 of the molar value.
readout_kind: pIC50

A selection of reference data follows.
Entry COCc1nn(Cc2ccc(Cn3cc(C)cn3)cc2)cc1C(=O)NCc1ccc2c(N)nccc2c1 [Example 38] needs its pIC50 filled in; supply it.
8.90

Entry C[C@H]1CCN(c2cc(Cn3cc(C(=O)NCc4ccc5c(N)nccc5c4)c(C(F)(F)F)n3)ccn2)C1 [Example 68] needs its pIC50 filled in; supply it.
7.23

P = Cc1cnn(Cc2ccc(Cn3c(C)cc(C(=O)NCc4ccc5c(N)nccc5c4)c3C)cc2)c1 [Example 9]
Q = CCOc1cc(Cn2cc(C(=O)NCc3ccc4c(N)nccc4c3)c(C(F)(F)F)n2)cnc1Cl [Example 74]
R = Cc1cnn(Cc2ccc(Cn3cc(C(=O)NCc4ccc5c(N)nccc5c4)nn3)cc2)c1 [Example 33]
Sort these compounds on pIC50 so the largest reading comes first. // ordering of labels required in reply
R, P, Q

---

tested_target: Human KLK1 (Homo sapiens (Human))
Sequence (P06870 25-262): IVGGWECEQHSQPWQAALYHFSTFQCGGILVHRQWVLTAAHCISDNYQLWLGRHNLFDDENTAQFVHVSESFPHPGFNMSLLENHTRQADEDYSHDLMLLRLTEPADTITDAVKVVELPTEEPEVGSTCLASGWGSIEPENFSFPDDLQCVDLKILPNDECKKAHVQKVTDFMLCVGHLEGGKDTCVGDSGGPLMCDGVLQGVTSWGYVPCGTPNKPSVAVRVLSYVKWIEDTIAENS
pIC50: −log10 of the molar value.
readout_kind: pIC50

Entry C[C@@H]1CCN(c2cc(Cn3cc(C(=O)NCc4ccc5c(N)nccc5c4)c(C(F)(F)F)n3)ccn2)C1 needs its pIC50 filled in; supply it.
5.05

a = Cc1cnn(Cc2ccc(Cn3cc(C(=O)NCc4ccc5c(N)nccc5c4)c(-c4ccsc4)n3)cc2)c1
b = O=C(NCc1cnc2[nH]ccc2c1)c1cn(Cc2ccc(N3CCCC3)nc2)nc1C(F)(F)F
c = Cc1cnn(Cc2ccc(Cn3cc(C(=O)NCc4ccc5c(N)nccc5c4)c(C#N)n3)cc2)c1
Sort these compounds on pIC50 so the largest reading comes first. // ordering of labels required in reply
b, c, a
(b: 5.92, c: 5.24, a: 5.04)
